- Measured On: KPC-2 (Klebsiella pneumoniae)
- Construct: made in house; host or cells: E. coli
- Sequence (Q9F663 25-293, looked up, species assumed): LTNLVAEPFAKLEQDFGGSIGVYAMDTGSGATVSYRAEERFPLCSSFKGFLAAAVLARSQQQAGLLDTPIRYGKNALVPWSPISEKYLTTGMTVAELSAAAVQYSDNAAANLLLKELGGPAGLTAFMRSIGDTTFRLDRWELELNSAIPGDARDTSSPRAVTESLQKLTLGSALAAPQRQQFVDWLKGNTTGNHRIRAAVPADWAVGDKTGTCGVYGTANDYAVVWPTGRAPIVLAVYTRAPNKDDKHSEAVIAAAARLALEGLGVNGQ
- Experimental Protocol: biochemical
- Experimental Context: class (A); nitrocefin 200 μM, 30 min pre-incubation, room temperature; read-out: BLA IC50 KPC-2
pIC50: −log10 of the molar value.
Parameter Measured: pIC50

INSERT INTO assay_data (compound, measured_on, observed_measurement) VALUES
  ('O=C1N2Cc3c(sc4c3CNCC4)C(C2)N1OS(=O)(=O)O (stereo not shown) [Example 8]', 'KPC-2 (Klebsiella pneumoniae)', 5.89),
  ('O=C1N2Cc3c(sc4ccccc34)C(C2)N1OS(=O)(=O)[O-].[Na+] (stereo not shown) [Example 1, sulfate]', 'KPC-2 (Klebsiella pneumoniae)', 7.59),
  ('O=C1N2Cc3nc4ccccc4cc3C(C2)N1OS(=O)(=O)[O-].[Na+] (stereo not shown) [Example 4]', 'KPC-2 (Klebsiella pneumoniae)', 6.43),
  ('NC(=O)[C@@H]1c2c(sc3ccccc23)[C@@H]2CN1C(=O)N2OS(=O)(=O)[O-].[Na+] (relative stereo) [Example 3, sulfate]', 'KPC-2 (Klebsiella pneumoniae)', 8.03);

Taken from patent US11530227B2.
